tested.on: Ubiquitin carboxyl-terminal hydrolase 30 (Homo sapiens)
method.notes: inhibitors of ubiquitin-specific protease 30 deubiquitylating enzyme, concentration dependence, in vitro biochemical, validation of primary hits (AID 1645865)
settings: purified USP30, Ub-rhodamine cleavage, fluorescence, 2 h
Activity calls are given as the source filed them.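 The calls were made as follows: active = maximal inhibition of the USP30 enzyme reaching 30% or more across the dose series; inactive = the rest.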
// one of t for active, f for inactive, no free text

| compound | label.value |
| --- | --- |
| CCN(C(=O)c1cc2c(Cl)nc3ccccc3c2s1)c1ccccc1F | f |
| CC1=C2C(=NCCN1)C(=O)N(c1ccccc1)C2c1cccnc1 (stereo not given) | f |
| CN(C(=O)CSc1nnc(-c2cc3ccccc3n2C)o1)c1ccccc1 | f |
| COc1ccc(CCNC(=O)c2cc3ccccc3s2)cc1OC | f |

Attention now turns to another entry.
## Input Record lookup: outcome of this test for `COc1ccc(CCNC(=O)COc2ncnc3oc(C)c(C)c23)cc1OC` ?
## Output f

These data points were gathered from PubChem BioAssay AID1645865.
